# System: LG0567-F671-PDC KRAS tumor spheroid viability;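 note: drug exposure lasted seven days after spheroids formed for three days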
# test.description: Anticancer human tumor LG0567-F671-PDC patient-derived lung adenocarcinoma cell line growth inhibition [KRAS2]; active = viability on the fitted dose curve at most 10% of control; inactive = the rest
# condition.parameters: second compound 1 µM; first compound 3.16 µM; spheroids with HUVEC and MSC
Outcomes: active, inactive

compound	discrete.label
CC1OCC2(CCN(c3cnc(Sc4ccnc(N)c4Cl)c(N)n3)CC2)C1N (stereo not given) + C=CC(=O)N1CCN(c2nc(=O)n(-c3c(C)ccnc3C(C)C)c3nc(-c4c(O)cccc4F)c(F)cc23)C(C)C1	active
COc1cc(Nc2ncc3c(n2)-c2ccc(Cl)cc2C(c2c(F)cccc2OC)=NC3)ccc1C(=O)O + CNCc1ccccc1-c1csc(C(C)Nc2nc(C)nc3cc(OC)c(OC)cc23)c1	inactive
CC(=O)OC12COC1CC(O)C1(C)C(=O)C(O)C3=C(C)C(OC(=O)C(O)C(NC(=O)OC(C)(C)C)c4ccccc4)CC(O)(C(OC(=O)c4ccccc4)C21)C3(C)C (stereo not given) + COc1cc2nc(C)nc(NC(C)c3cc(N)cc(C(F)(F)F)c3)c2cc1OC1CCOC1	inactive
O=C(c1cc(Cc2n[nH]c(=O)c3ccccc23)ccc1F)N1CCN(C(=O)C2CC2)CC1 + COc1cc2nc(C)nc(NC(C)c3cc(N)cc(C(F)(F)F)c3)c2cc1OC1CCOC1	inactive
O=C(c1cc(Cc2n[nH]c(=O)c3ccccc23)ccc1F)N1CCN(C(=O)C2CC2)CC1 + CC1OCC2(CCN(c3cnc(Sc4ccnc(N)c4Cl)c(N)n3)CC2)C1N	inactive
Cn1nccc1Nc1nccc(-c2cc3c(s2)C(C)(C)N(CCN2CCOCC2)C3=O)n1 + C=CC(=O)N1CCN(c2nc(=O)n(-c3c(C)ccnc3C(C)C)c3nc(-c4c(O)cccc4F)c(F)cc23)C(C)C1	inactive
CC(C)NCC(C(=O)N1CCN(c2ncnc3c2C(C)CC3O)CC1)c1ccc(Cl)cc1 (stereo not given) + CC1OCC2(CCN(c3cnc(Sc4ccnc(N)c4Cl)c(N)n3)CC2)C1N	active
CC1(C)CCC(CN2CCN(c3ccc(C(=O)NS(=O)(=O)c4ccc(NCC5CCOCC5)c([N+](=O)[O-])c4)c(Oc4cnc5[nH]ccc5c4)c3)CC2)=C(c2ccc(Cl)cc2)C1 + C=CC(=O)N1CCN(c2nc(=O)n(-c3c(C)ccnc3C(C)C)c3nc(-c4c(O)cccc4F)c(F)cc23)C(C)C1	inactive
CC(=O)OC12COC1CC(O)C1(C)C(=O)C(O)C3=C(C)C(OC(=O)C(O)C(NC(=O)OC(C)(C)C)c4ccccc4)CC(O)(C(OC(=O)c4ccccc4)C21)C3(C)C (stereo not given) + C=CC(=O)N1CCN(c2nc(=O)n(-c3c(C)ccnc3C(C)C)c3nc(-c4c(O)cccc4F)c(F)cc23)C(C)C1	inactive
COC(=O)c1ccc2c(C(=Nc3ccc(N(C)C(=O)CN4CCN(C)CC4)cc3)c3ccccc3)c(O)[nH]c2c1 + CNCc1ccccc1-c1csc(C(C)Nc2nc(C)nc3cc(OC)c(OC)cc23)c1	active

Reference source: PubChem BioAssay AID1963856
